Examples of compounds with documented % DAMGO + BFNA follow.
biological target: mu opiate receptor (MOR) (Rattus norvegicus, UniProt P33535); construct: from tissue; host or cells: striatum (membrane preparation); assay type: biochemical
Sequence (P33535 whole entry): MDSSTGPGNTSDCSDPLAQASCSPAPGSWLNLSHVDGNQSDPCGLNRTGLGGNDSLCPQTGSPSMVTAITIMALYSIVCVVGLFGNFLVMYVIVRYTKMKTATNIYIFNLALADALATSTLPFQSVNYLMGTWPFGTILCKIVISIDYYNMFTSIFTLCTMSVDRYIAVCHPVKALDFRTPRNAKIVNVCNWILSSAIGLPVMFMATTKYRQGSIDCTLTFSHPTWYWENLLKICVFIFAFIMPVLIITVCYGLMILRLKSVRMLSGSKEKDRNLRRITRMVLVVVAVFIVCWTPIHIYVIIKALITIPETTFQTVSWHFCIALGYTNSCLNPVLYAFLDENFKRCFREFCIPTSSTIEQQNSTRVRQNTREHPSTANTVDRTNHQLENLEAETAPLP
readout-label: % DAMGO + BFNA (%)

{"columns": ["compound", "target-of-assay", "readout-label", "reported-value"],
 "data": [
  ["CC1CCC(C(C)C)C(OCC(O)CN2CCCC2=O)C1 (stereo not drawn)", "mu opiate receptor (MOR) (Rattus norvegicus, UniProt P33535)", "% DAMGO + BFNA", 119.9],
  ["CC(=O)c1ccc(S(=O)(=O)N2CCOC23CCN(C)CC3)cc1 [Compound C0093M]", "mu opiate receptor (MOR) (Rattus norvegicus, UniProt P33535)", "% DAMGO + BFNA", 127.5],
  ["CN1CCC2(CC1)NCC(=O)N2Cc1ccccc1 [Compound C0105M]", "mu opiate receptor (MOR) (Rattus norvegicus, UniProt P33535)", "% DAMGO + BFNA", 150.7],
  ["CC1CCC(C(C)C)C(OCC(O)CN2CCCc3ccccc32)C1 (stereo not drawn)", "mu opiate receptor (MOR) (Rattus norvegicus, UniProt P33535)", "% DAMGO + BFNA", 182.0],
  ["COc1ccc(CCC(=O)CC2c3c(cc4c(c3OC)OCO4)CC[N+]2(C)C)cc1 (stereo not drawn)", "mu opiate receptor (MOR) (Rattus norvegicus, UniProt P33535)", "% DAMGO + BFNA", 109.4],
  ["COc1ccc(CCC(O)CC2c3c(cc4c(c3OC)OCO4)CC[N+]2(C)C)cc1 (stereo not drawn)", "mu opiate receptor (MOR) (Rattus norvegicus, UniProt P33535)", "% DAMGO + BFNA", 506.5],
  ["CCCCc1ccc(S(=O)(=O)N2CCC3(CC2)OCCN3S(=O)(=O)c2ccc(CCCC)cc2)cc1", "mu opiate receptor (MOR) (Rattus norvegicus, UniProt P33535)", "% DAMGO + BFNA", 291.4],
  ["OC(COc1cccc(C(F)(F)F)c1)CN1CCc2ccccc2C1 (stereo not drawn)", "mu opiate receptor (MOR) (Rattus norvegicus, UniProt P33535)", "% DAMGO + BFNA", 348.9],
  ["CCCCN1CCC2(CC1)OCCN2S(=O)(=O)c1ccc(C(C)=O)cc1 [Compound C0101M]", "mu opiate receptor (MOR) (Rattus norvegicus, UniProt P33535)", "% DAMGO + BFNA", 368.0]
]}

----------
molecular target: mu opiate receptor (MOR) (Rattus norvegicus, UniProt P33535); construct: from tissue; host or cells: striatum (membrane preparation); type: biochemical; conditions: [35S]GTPγS binding to Gαo in striatal membranes; compound 1 μM plus 1 μM β-funaltrexamine (MOR antagonist)
Lab note: anything with Concentration of FLNA-Binding Compound as Agonist 1 μM + BFNA below 80% is marked Condition met; values at 80% or higher are marked Condition not met.

{"columns": ["compound", "discrete-label"],
 "data": [
  ["CCCCc1ccc(S(=O)(=O)N2CCC3(CC2)OCCN3S(=O)(=O)c2ccc(CCCC)cc2)cc1", "Condition not met"],
  ["COc1ccc(OCC(O)CN2CCOc3ccccc32)cc1 (stereo not shown)", "Condition met"],
  ["COc1c2c(cc3c1C(CC(=O)CCc1ccc(O)cc1)[N+](C)(C)CC3)OCO2 (stereo not shown)", "Condition met"],
  ["CC1CCC(C(C)C)C(OCC(O)CN2CCC(=O)CC2)C1 (stereo not shown)", "Condition met"],
  ["COc1cccc(OC)c1CC(=O)CC1c2c(cc3c(c2OC)OCO3)CC[N+]1(C)C (stereo not shown)", "Condition met"],
  ["CC1CCC(C(C)C)C(OCC(O)CN2CCCN(C)CC2)C1 (stereo not shown)", "Condition not met"],
  ["COc1ccc(C(=O)CC2c3c(cc4c(c3OC)OCO4)CC[N+]2(C)C)c(O)c1 (stereo not shown)", "Condition met"],
  ["COc1c2c(cc3c1C(CC(=O)Cc1ccccc1C)N(C)CC3)OCO2 (stereo not shown)", "Condition not met"],
  ["CC1CCC(C(C)C)C(OCC(O)CN2CCC2)C1 (stereo not shown)", "Condition met"],
  ["CC1CCC(C(C)C)C(OCC(O)CN2CC(C)CC(C)C2)C1 (stereo not shown)", "Condition not met"],
  ["O=C1CN(Cc2ccccc2)C2(CCN(S(=O)(=O)c3cc(Cl)cc(Cl)c3O)CC2)N1 [Compound C0138M]", "Condition met"],
  ["O=S(=O)(c1ccccc1)N1CCC2(CC1)OCCN2S(=O)(=O)c1ccccc1", "Condition not met"],
  ["CC1CCC(C(C)C)C(OCC(O)CN2CCOCC2)C1 (stereo not shown)", "Condition not met"],
  ["COc1ccc(C(=O)CC2c3c(cc4c(c3OC)OCO4)CC[N+]2(C)C)cc1 (stereo not shown)", "Condition met"],
  ["CC1CN(CC(O)COC2CCCCC2)CC(C)O1 (stereo not shown)", "Condition met"],
  ["COc1cc(OC)cc(C(=O)CC2c3c(cc4c(c3OC)OCO4)CC[N+]2(C)C)c1 (stereo not shown)", "Condition met"],
  ["CC(=O)c1ccc(C(=O)N2CCOC23CCN(S(=O)(=O)c2ccc(C(C)=O)cc2)CC3)cc1", "Condition not met"],
  ["COc1c2c(cc3c1C(CC(=O)c1ccc(O)c(C)c1)[N+](C)(C)CC3)OCO2 (stereo not shown)", "Condition not met"],
  ["CC1CCCC(OCC(O)CN2CC(C)OC(C)C2)C1 (stereo not shown)", "Condition met"],
  ["O=S(=O)(c1ccc(F)c(F)c1)N1CCC2(CC1)OCCN2S(=O)(=O)c1ccc(F)c(F)c1", "Condition met"],
  ["COCOc1ccc(C(=O)CC2c3c(cc4c(c3OC)OCO4)CC[N+]2(C)C)cc1C (stereo not shown)", "Condition met"],
  ["CC1CCC(C(C)C)C(OCC(O)CN2CCCCC2)C1 (stereo not shown)", "Condition met"],
  ["CC1CN(CC(O)COc2ccc(Br)c(Cl)c2)CC(C)O1 (stereo not shown)", "Condition not met"],
  ["COc1ccc(OCC(O)Cn2ccc3ccccc32)cc1 (stereo not shown)", "Condition not met"],
  ["COc1c2c(cc3c1C(CC(O)CCc1ccccc1)N(C)CC3)OCO2 (stereo not shown)", "Condition met"],
  ["COc1ccc(NC(=O)N2CCC3(CC2)OCCN3S(=O)(=O)c2ccc(OC)cc2)cc1", "Condition not met"],
  ["COc1ccc(CCCCC2c3c(cc4c(c3OC)OCO4)CC[N+]2(C)C)cc1 (stereo not shown)", "Condition met"],
  ["CC(=O)c1ccc(C(=O)N2CCC3(CC2)OCCN3S(=O)(=O)c2ccc(C(C)=O)cc2)cc1", "Condition met"],
  ["COc1cc(CC(=O)CC2c3c(cc4c(c3OC)OCO4)CC[N+]2(C)C)cc(OC)c1OC (stereo not shown)", "Condition met"],
  ["O=S(=O)(c1ccc(F)cc1)N1CCC2(CC1)OCCN2S(=O)(=O)c1ccc(F)cc1", "Condition met"]
]}
